Every entry's value here was drawn from ChEMBL document CHEMBL3108700.

- Measured On: Toll-like receptor 9 (Mus musculus) (UniProt Q9EQU3)
- Test: Inhibition of TLR9 in BALB/c mouse BMDM assessed as downregulation of CpG-stimulated IL-6 level at 5 ug/ml preincubated for 18 hrs followed by CpG challenge measured after 24 hrs by ELISA relative to control
Calls of active or inactive are those of the source. The rule behind the calls is not given here.
Measured Parameter: inhibition

- Smiles: "CN(C)CCS(=O)(=O)NCc1ccc(Br)cc1"
  Measured: "inactive"
- Smiles: "O=[N+]([O-])c1ccc(CS(=O)(=O)NCCN2CCCC2)cc1"
  Measured: "inactive"
- Smiles: "CN(C)CCCNS(=O)(=O)Cc1ccc([N+](=O)[O-])cc1"
  Measured: "inactive"
- Smiles: "Cc1ccc(CNS(=O)(=O)CCN(C)C)cc1"
  Measured: "inactive"
- Smiles: "C[N+]1(CCCS(=O)(=O)Cc2ccc(Br)cc2)CCCC1"
  Measured: "inactive"
- Smiles: "CN(C)CCS(=O)(=O)NCc1ccccc1"
  Measured: "inactive"
- Smiles: "O=S(=O)(CCN1CCCC1)Cc1cccc(F)c1"
  Measured: "inactive"
- Smiles: "COc1cccc(C(=O)NCCN2CCOCC2)c1"
  Measured: "Active"
- Smiles: "Cc1ccc(CS(=O)(=O)CCC[N+]2(C)CCCC2)cc1"
  Measured: "inactive"
- Smiles: "CN(C)CCS(=O)(=O)Nc1ccccc1"
  Measured: "inactive"
- Smiles: "CC[C@H](C)NCCS(=O)(=O)Cc1ccc(Br)cc1"
  Measured: "inactive"
- Smiles: "Cc1ccc(CNS(=O)(=O)CCN(C)CCN(C)C)cc1"
  Measured: "Active"
- Smiles: "O=S(=O)(CCCN1CCOCC1)Cc1ccc(Br)cc1"
  Measured: "inactive"

---

- Measured On: TLR2/TLR6 (Mus musculus) (UniProt Q9QUN7+Q9EPW9)
- Test: Inhibition of TLR2/6 in BALB/c mouse BMDM assessed as downregulation of BLP-stimulated IL-12p40 level at 5 ug/ml preincubated for 18 hrs followed by BLP challenge measured after 24 hrs by ELISA relative to control
- Type: protein-complex assay
The source made the active and inactive calls. How the calls were made is not given here.
Labels: active, inactive

- Smiles: "O=S(=O)(CCN1CCCC1)NCc1ccccc1"
  Label Class: "inactive"
- Smiles: "Cc1ccc(CS(=O)(=O)CCCN2CCCC2)cc1"
  Label Class: "inactive"
- Smiles: "CN(C)CCOP(=O)(O)Cc1ccc([N+](=O)[O-])cc1"
  Label Class: "inactive"
- Smiles: "CN(C)CCNS(=O)(=O)Cc1ccccc1"
  Label Class: "inactive"
- Smiles: "CN(C)CCCNS(=O)(=O)Cc1ccccc1"
  Label Class: "inactive"
- Smiles: "CC(C)(C)NCCS(=O)(=O)c1ccccc1"
  Label Class: "active"
- Smiles: "CN(C)CCOP(=O)(O)Cc1ccc(Br)cc1"
  Label Class: "inactive"
- Smiles: "CN(C)CCS(=O)(=O)Cc1ccc(Br)cc1"
  Label Class: "active"
- Smiles: "CN(C)CCCNS(=O)(=O)Cc1ccc(F)cc1"
  Label Class: "inactive"
- Smiles: "O=[N+]([O-])c1ccc(CS(=O)(=O)NCCN2CCOCC2)cc1"
  Label Class: "inactive"
- Smiles: "Cc1ccc(CNS(=O)(=O)CCN(C)C)cc1"
  Label Class: "inactive"
- Smiles: "C[N+]1(CCCS(=O)(=O)Cc2ccc(Br)cc2)CCCC1"
  Label Class: "inactive"
- Smiles: "Cc1ccc(CNS(=O)(=O)CCN2CCOCC2)cc1"
  Label Class: "inactive"
- Smiles: "Cc1ccc(CS(=O)(=O)CC[N+](C)(C)C)cc1"
  Label Class: "active"
- Smiles: "C[N+]1(CCCS(=O)(=O)Cc2ccc(Br)cc2)CCOCC1"
  Label Class: "inactive"
- Smiles: "O=[N+]([O-])c1ccc(CNS(=O)(=O)CCN2CCOCC2)cc1"
  Label Class: "inactive"
- Smiles: "Cc1ccc(CS(=O)(=O)CCN(C)C)cc1"
  Label Class: "inactive"
- Smiles: "O=S(=O)(CCN1CCCC1)Cc1cccc(F)c1"
  Label Class: "active"
- Smiles: "Cc1ccc(CS(=O)(=O)CCC[N+](C)(C)C)cc1"
  Label Class: "inactive"
- Smiles: "O=C(Cc1ccccc1)NCCN1CCOCC1"
  Label Class: "inactive"
- Smiles: "CN(C)CCCS(=O)(=O)Cc1ccc(Br)cc1"
  Label Class: "inactive"
- Smiles: "Cc1ccc(CS(=O)(=O)NCCN2CCOCC2)cc1"
  Label Class: "inactive"
- Smiles: "O=S(=O)(CCN1CCOCC1)NCc1ccc(Br)cc1"
  Label Class: "inactive"
- Smiles: "O=S(=O)(CCN1CCOCC1)Cc1ccc(F)cc1"
  Label Class: "inactive"

---

- Measured On: Toll-like receptor 9 (Mus musculus)
- Sequence (whole entry): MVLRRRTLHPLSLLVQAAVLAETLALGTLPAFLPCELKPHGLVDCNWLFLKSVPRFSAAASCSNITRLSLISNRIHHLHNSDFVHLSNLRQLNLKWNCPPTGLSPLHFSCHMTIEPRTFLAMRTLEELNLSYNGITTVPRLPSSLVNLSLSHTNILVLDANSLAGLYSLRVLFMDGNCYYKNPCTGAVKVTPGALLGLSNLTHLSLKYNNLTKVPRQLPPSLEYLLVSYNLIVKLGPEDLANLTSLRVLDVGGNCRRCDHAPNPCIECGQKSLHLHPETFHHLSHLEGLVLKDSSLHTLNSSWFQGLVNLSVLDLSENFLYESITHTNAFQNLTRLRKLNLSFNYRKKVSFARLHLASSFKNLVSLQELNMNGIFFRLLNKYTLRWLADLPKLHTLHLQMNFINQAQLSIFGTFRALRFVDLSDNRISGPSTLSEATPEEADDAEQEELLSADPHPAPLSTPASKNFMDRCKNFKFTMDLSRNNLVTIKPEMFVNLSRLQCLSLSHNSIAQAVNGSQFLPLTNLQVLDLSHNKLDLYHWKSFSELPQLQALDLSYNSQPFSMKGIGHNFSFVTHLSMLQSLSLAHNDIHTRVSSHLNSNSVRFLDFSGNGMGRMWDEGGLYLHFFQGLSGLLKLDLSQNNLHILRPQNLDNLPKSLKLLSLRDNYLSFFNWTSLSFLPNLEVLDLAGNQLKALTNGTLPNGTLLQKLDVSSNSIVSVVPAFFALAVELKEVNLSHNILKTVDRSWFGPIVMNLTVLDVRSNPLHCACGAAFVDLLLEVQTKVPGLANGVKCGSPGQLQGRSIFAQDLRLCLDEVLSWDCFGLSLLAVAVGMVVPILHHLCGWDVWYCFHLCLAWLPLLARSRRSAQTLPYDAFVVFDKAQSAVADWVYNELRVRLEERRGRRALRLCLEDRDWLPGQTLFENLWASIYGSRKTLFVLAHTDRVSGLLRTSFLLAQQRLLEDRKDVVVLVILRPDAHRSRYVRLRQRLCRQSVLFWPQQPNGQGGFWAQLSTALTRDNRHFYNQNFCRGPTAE
- Test: Inhibition of TLR9 in BALB/c mouse BMDM assessed as downregulation of CpG-stimulated IL-12p40 level at 5 ug/ml preincubated for 18 hrs followed by CpG challenge measured after 24 hrs by ELISA relative to control
Activity calls are given as the source filed them. How the calls were made is not given here.

- Smiles: "O=S(=O)(CCN1CCCC1)Nc1ccc(F)cc1"
  inhibition: "inactive"
- Smiles: "O=S(=O)(Cc1ccc(F)cc1)NCCN1CCOCC1"
  inhibition: "inactive"
- Smiles: "Cc1ccc(CS(=O)(=O)CCC[N+]2(C)CCCC2)cc1"
  inhibition: "inactive"
- Smiles: "CN(C)CCN(C)CCS(=O)(=O)Cc1cccc(F)c1"
  inhibition: "inactive"
- Smiles: "C[N+](C)(C)CCS(=O)(=O)Cc1ccc(Br)cc1"
  inhibition: "inactive"
- Smiles: "CC(C)NCCS(=O)(=O)c1ccccc1"
  inhibition: "inactive"
- Smiles: "O=S(=O)(CCN1CCCC1)Cc1ccc(F)cc1"
  inhibition: "inactive"
- Smiles: "C[N+]1(CCCS(=O)(=O)Cc2ccc(Br)cc2)CCCC1"
  inhibition: "inactive"
- Smiles: "CN(C)CCN(C)CCS(=O)(=O)NCc1ccc(Br)cc1"
  inhibition: "Active"
- Smiles: "O=S(=O)(CCNCCCO)c1ccccc1"
  inhibition: "inactive"
- Smiles: "Cc1ccc(CP(=O)(O)OCCCN(C)C)cc1"
  inhibition: "inactive"
- Smiles: "Cc1ccc(CNS(=O)(=O)CCN2CCCC2)cc1"
  inhibition: "inactive"
- Smiles: "CN(C)CCS(=O)(=O)Nc1ccccc1"
  inhibition: "inactive"
- Smiles: "Cc1ccc(CNS(=O)(=O)CCN(C)CCN(C)C)cc1"
  inhibition: "inactive"
- Smiles: "CN(C)CCOP(=O)(O)Cc1ccc([N+](=O)[O-])cc1"
  inhibition: "inactive"
- Smiles: "Cc1ccc(CS(=O)(=O)CC[N+](C)(C)C)cc1"
  inhibition: "Active"
- Smiles: "CC(C)(C)NCCS(=O)(=O)c1ccccc1"
  inhibition: "inactive"
- Smiles: "CN(C)CCS(=O)(=O)Cc1ccc(Br)cc1"
  inhibition: "Active"
- Smiles: "O=S(=O)(CCN1CCOCC1)NCc1ccccc1"
  inhibition: "inactive"
- Smiles: "CC[C@@H](C)NCCS(=O)(=O)Cc1cccc(F)c1"
  inhibition: "inactive"
- Smiles: "CN(C)CCN(C)CCS(=O)(=O)c1ccccc1"
  inhibition: "inactive"
- Smiles: "O=S(=O)(Cc1ccc2ccccc2c1)NCCN1CCOCC1"
  inhibition: "Active"
- Smiles: "CN(C)CCS(=O)(=O)Cc1cccc(F)c1"
  inhibition: "inactive"
- Smiles: "CN(C)CCS(=O)(=O)NCc1ccc([N+](=O)[O-])cc1"
  inhibition: "Active"
- Smiles: "O=S(=O)(CCN1CCOCC1)c1ccccc1"
  inhibition: "inactive"
- Smiles: "O=S(=O)(CCCN1CCOCC1)Cc1ccc(Br)cc1"
  inhibition: "inactive"
- Smiles: "CN(C)CCNS(=O)(=O)Cc1ccc(/C=C/c2ccccc2)cc1"
  inhibition: "inactive"
